Origin of the recorded values: ChEMBL document CHEMBL1157539

System: Plasmodium falciparum
Assay: GSK_TCMDC: Inhibition of Plasmodium falciparum 3D7 in whole red blood cells, using parasite LDH activity as an index of growth. Test compounds present at 2uM
Type: functional
Collected Inhibition values appear next to each entry.
Number in %, nothing else.

1. O=C(N[C@H]1CCN(Cc2ccc(OC3CCN(Cc4ccccc4)CC3)c(Cl)c2)C1)c1ccc(Cl)c(Cl)c1.O=C(O)C(F)(F)F    99
2. Cc1c(CNCCCNc2cc(=O)c3ccccc3[nH]2)sc(C(F)F)c1Br.Cl    98
3. NS(=O)(=O)CCc1cccc(Nc2nccc(-c3c(-c4cccc(NC(=O)c5c(F)cccc5F)c4)nn4ccccc34)n2)c1    98
4. CN(C(=O)/C=C/c1c(Cl)cccc1Cl)C1CCN(CCCCCNC(=O)/C=C/c2ccc(Cl)c(Cl)c2)CC1    92
5. Cc1cnc(C(=O)Nc2cccc(-c3cccc(-c4nc5cccc(C)c5[nH]4)c3)c2)cn1    99

Request: # query: Inhibition of entry `O=C(O)C(F)(F)F.O=S(=O)(NCCN1CCCC1)c1ccc(-c2cccc(CNCc3ccsc3)c2)s1`
Response: 90

Request: Further, for `CN(CCCNc1ccc(C(=O)Nc2ccc(C(F)(F)F)cc2)cc1[N+](=O)[O-])Cc1ccccc1` ?
Response: 100

Request: Further, for `CN(C)CCNCc1nc(-c2ccc3c(Nc4ccc(Cl)cc4F)ccnc3c2)cs1` ?
Response: 100

Request: Further, for `O=C(Nc1ccccc1)N(Cc1cccc(-c2cccc(CNCCc3ccccc3)c2)c1)C1CCN(Cc2ccccc2)CC1.O=C(O)C(F)(F)F` ?
Response: 100

Request: Further, for `COc1cc(Nc2nccc(N3CCC(NS(=O)(=O)c4ccc(NC(C)=O)cc4)CC3)n2)cc(OC)c1OC` ?
Response: 91

Request: Further, for `O=S(=O)(Nc1cccc(CCN2CCC(N3CCCCC3)CC2)c1)c1cccc2cccnc12` ?
Response: 98

Request: Further, for `Br.CC1(C)NC(N)=NC(=N)N1OCCNCc1ccc(Cl)cc1` ?
Response: 95

Request: Further, for `Br.COc1cc(CCCON2C(=N)N=C(N)NC2(C)C)cc(OC)c1OC` ?
Response: 98

###

System: Plasmodium falciparum
Assay: GSK_TCMDC: Inhibition of Plasmodium falciparum Dd2 in whole red blood cells, using parasite LDH activity as an index of growth. Test compounds present at 2uM
Type: functional
The label is Condition met for Inhibition below 80% and Condition not met for Inhibition equal to or exceeding 80%.

Here are 8 compounds together with their reported answers.
1. CC(C)(C(=O)Nc1ccc(C2CCC(NCC3CC3)CC2)c(Cl)c1)c1ccc(C(F)(F)F)cc1 (stereo not drawn)    Condition met
2. O=C(NCC1CC1)C1CCN(C(c2ccccc2)c2nc3ccccc3s2)CC1 (stereo not drawn)    Condition met
3. O=C(/C=C/C=C/c1ccc(Cl)c(Cl)c1)NCCCCCN1CCCC2CCCCC21 (stereo not drawn)    Condition met
4. Cl.c1ccc(-c2cc(NCCNc3cc(-c4ccccc4)nc4ccccc34)c3ccccc3n2)cc1    Condition met
5. NC1CCN(Cc2cccc(-c3ccc(-c4nc5ccccc5[nH]4)cc3)c2)C1.O=C(O)C(F)(F)F (stereo not drawn)    Condition met
6. COc1ccc(NC(=O)c2cccc(Br)c2)cc1N1CCN(CCCCCCCN2CCN(c3cc(NC(=O)c4cccc(Br)c4)ccc3OC)CC2)CC1.Cl    Condition not met
7. O=S(=O)(Nc1cccc(CCN2CCC(N3CCCCC3)CC2)c1)c1cccc2cccnc12    Condition met
8. COc1cc2nc(N3CCC(CNC(=O)c4ccc(-c5ccc(C#N)cc5)cc4)CC3)nc(N)c2cc1OC    Condition not met

Request: Would you kindly verify if Inhibition of `C=CCc1cc(Cc2cnc(N)nc2N)cc(CCC)c1OC` is strictly less than 80%?
Response: Condition met

Request: Further, for `O=C(c1cnn(-c2ccccc2)c1C(F)(F)F)N1CCN(c2ccnc3cc(Cl)ccc23)CC1` ?
Response: Condition not met

Request: Further, for `CCN1CCC(N(Cc2ccc(-c3ccc(C(F)(F)F)cc3)cc2)C(=O)Cn2c(CCc3cccc(F)c3F)cc(=O)c3c2CCC3)CC1.O=C(O)C(O)C(O)C(=O)O` ?
Response: Condition not met

Request: Further, for Br.CC1(C)N=C(N)N=C(N)N1OCC1COc2ccccc2O1 (stereo not drawn) ?
Response: Condition met

Request: Further, for `Cl.FC(F)(F)c1cc(Nc2ncnc3ccc(Br)cc23)ccc1OCc1ccccc1` ?
Response: Condition met

Request: Further, for `CN(C)CCOc1ccc(NC(=O)Nc2ccnc3c(Br)cccc23)cc1Cl` ?
Response: Condition met

Request: Further, for `CCOc1ccc2ccccc2c1C(=O)Nc1cc(C)nn1-c1nc(C)cc(=O)[nH]1` ?
Response: Condition not met

Request: Further, for `CCN1CCC(N(Cc2ccc(-c3ccc(C(F)(F)F)cc3)cc2)C(=O)Cn2c(CCc3cccc(F)c3F)cc(=O)c3c2CCCC3)CC1.O=C(O)C(O)C(O)C(=O)O` ?
Response: Condition not met

Request: Further, for `Cl.O=c1cc(NCCCNCc2cc3c(Cl)cccc3s2)[nH]c2ccccc12` ?
Response: Condition met
